Tested on: rodent lifetime carcinogenesis bioassay, tumor incidence TD50
assay: carcinogenic potency in animals, long-term in vivo studies, CPDB compilation (AID 1745844)
setup.conditions: rat; strain Wistar; males; inhaled; site: lung; lesion: several types; types named in the paper; dosed 78 weeks; study length 130 weeks
endpoint: TD50

-- ask Please give the measured TD50 for this compound: [O]=[Cr](=[O])([OH])[O][Cr](=[O])(=[O])[OH]
-- reply 4.64 mg/kg/day

Switching to the query record.
-- ask Please give the measured TD50 for this compound: [Cl][Cd][Cl]
-- reply 0.00611 mg/kg/day

----------
Test system: rodent lifetime carcinogenesis bioassay, tumor incidence TD50
assay: carcinogenic potency in animals, long-term in vivo studies, CPDB compilation (AID 1745844)
setup.conditions: rat; strain Fischer 344; females; by gavage; site: esophagus; lesion: squamous-cell tumor; dosed 43 weeks; study length 90 weeks
endpoint: TD50

-- ask Please give the measured TD50 for this compound: CC1SC(C)N(N=O)C(C)S1 (stereo unspecified)
-- reply 0.483 mg/kg/day

----------
Test system: rodent lifetime carcinogenesis bioassay, tumor incidence TD50
assay: carcinogenic potency in animals, long-term in vivo studies, CPDB compilation (AID 1745844)
setup.conditions: rat; strain Holtzman albino (Sprague-Dawley derived); females; in feed; site: kidney; lesion: carcinoma; dosed 44 weeks; study length 60 weeks
endpoint: TD50

-- ask Please give the measured TD50 for this compound: O=CNNc1nc(-c2ccc([N+](=O)[O-])o2)cs1
-- reply 78.5 mg/kg/day

----------
Tested on: rodent lifetime carcinogenesis bioassay, tumor incidence TD50
assay: carcinogenic potency in animals, long-term in vivo studies, CPDB compilation (AID 1745844)
setup.conditions: rat; strain Fischer 344; females; inhaled; site: lung; lesion: alveolar/bronchiolar adenoma; dosed 104 weeks; study length 104 weeks
endpoint: TD50
Answer format: value, then unit.

-- ask Please give the measured TD50 for this compound: C=CC(=C)Cl
-- reply 279 mg/kg/day

----------
Test system: rodent lifetime carcinogenesis bioassay, tumor incidence TD50
assay: carcinogenic potency in animals, long-term in vivo studies, CPDB compilation (AID 1745844)
setup.conditions: rat; strain Osborne-Mendel; males; in feed; site: liver; lesion: hepatocellular adenoma + hepatocellular carcinoma + neoplastic nodule; dosed 78 weeks; study length 110 weeks
Consider the following compounds; for each one, report its TD50.
Give bare numbers, in mg/kg/day.

-- ask Please give the measured TD50 for this compound: OC(c1ccc(Cl)cc1)(c1ccc(Cl)cc1)C(Cl)(Cl)Cl
-- reply 517

***
-- ask Please give the measured TD50 for this compound: CCOC(=O)C(O)(c1ccc(Cl)cc1)c1ccc(Cl)cc1
-- reply 1600

----------
System: rodent lifetime carcinogenesis bioassay, tumor incidence TD50
assay: carcinogenic potency in animals, long-term in vivo studies, CPDB compilation (AID 1745844)
setup.conditions: rat; strain Fischer 344; males; in feed; site: subcutaneous tissue; lesion: fibrosarcoma + fibroma; dosed 103 weeks; study length 104 weeks
endpoint: TD50 (mg/kg/day)
One number for each entry, in mg/kg/day.

-- ask Please give the measured TD50 for this molecule: N=C1C=CC(=C(c2ccc(N)cc2)c2ccc(N)cc2)C=C1
-- reply 33

----------
Test system: rodent lifetime carcinogenesis bioassay, tumor incidence TD50
assay: carcinogenic potency in animals, long-term in vivo studies, CPDB compilation (AID 1745844)
setup.conditions: mouse; strain B6C3F1; females; in feed; site: lung; lesion: adenoma; dosed 96 weeks; study length 104 weeks
Activity calls are given as the source filed them. How the calls were made is not given here.
endpoint: TD50

-- ask Requested read-out TD50, target or system rodent lifetime carcinogenesis bioassay, tumor incidence TD50, entry O
-- reply 100000 mg/kg/day (inactive)

***
-- ask Requested read-out TD50, target or system rodent lifetime carcinogenesis bioassay, tumor incidence TD50, entry CCOc1ccc(NC(C)=O)cc1
-- reply 6890 mg/kg/day (inactive)

FYI, the data here is from PubChem BioAssay AID1745844.
